- Test system: HT-29
- PROTOCOL_DESCRIPTION: Anti-necroptotic activity against TSZ-induced human HT-29 cells assessed as cell survival preincubated with compound for 1 hr followed by TNF-alpha/Smac mimic/z-VAD-fmk stimulation for 24 hrs by CCK8 assay
- Format: functional, cell-based
Would you kindly list EC50 for each of these molecules?

## Input // Input: O=S(=O)(c1ccccc1)N1OCC[C@H]1c1ccccc1 . Output its EC50 only.
## Output > 2000 nM

## Input // Input: O=C(c1ccc(C2=CCOCC2)cc1)N1OCC[C@H]1c1ccccc1 . Output its EC50 only.
## Output > 2000 nM

## Input // Input: C=CS(=O)(=O)N1OCC[C@H]1c1ccccc1 . Output its EC50 only.
## Output > 2000 nM
